Assign log10 of Kd to each entry below.
measured.target: feline FcRn (FCN-F82W3, Acrobiosystems) (feline)
procedure.details: SPR Carterra, IgG coupled, pH 6.0
Transform log10 | Measure Kd | Unit nM

*Q* // query log10 of Kd value for entry anti-NGF feline IgG1a, Fc variant T286D (antibody, part only; not given: anti-NGF variable domains, not shown: another chain or arm of the molecule; small tags and cut ends) Fc: PPEMLGGPSIFIFPPKPKDTLSISRTPEVTCLVVDLGPDDSDVQITWFVDNTQVYDAKTSPREEQFNSTYRVVSVLPILHQDWLKGKEFKCKVNSKSLPSPIERTISKAKGQPHEPQVYVLPPAQEELSRNKVSVTCLIKSFHPPDIAVEWEITGQPEPENNYRTTPPQLDSDGTYFVYSKLSVDRSHWQRGNTYTCSVSHEALHSHHTQKSLTQSPGK
*A* 1.99

*Q* Entry anti-NGF feline IgG1a, Fc variant S428L, T286E (antibody, part only; not given: anti-NGF variable domains, not shown: another chain or arm of the molecule; small tags and cut ends) Fc: PPEMLGGPSIFIFPPKPKDTLSISRTPEVTCLVVDLGPDDSDVQITWFVDNTQVYEAKTSPREEQFNSTYRVVSVLPILHQDWLKGKEFKCKVNSKSLPSPIERTISKAKGQPHEPQVYVLPPAQEELSRNKVSVTCLIKSFHPPDIAVEWEITGQPEPENNYRTTPPQLDSDGTYFVYSKLSVDRSHWQRGNTYTCSVLHEALHSHHTQKSLTQSPGK has what log10 of Kd?
*A* 0.93

*Q* Give its log10 of Kd value. Item: anti-NGF feline IgG1a, Fc variant S428Y (antibody, part only; not given: anti-NGF variable domains, not shown: another chain or arm of the molecule; small tags and cut ends) Fc: PPEMLGGPSIFIFPPKPKDTLSISRTPEVTCLVVDLGPDDSDVQITWFVDNTQVYTAKTSPREEQFNSTYRVVSVLPILHQDWLKGKEFKCKVNSKSLPSPIERTISKAKGQPHEPQVYVLPPAQEELSRNKVSVTCLIKSFHPPDIAVEWEITGQPEPENNYRTTPPQLDSDGTYFVYSKLSVDRSHWQRGNTYTCSVYHEALHSHHTQKSLTQSPGK
*A* 1.41

*Q* Requested field: log10 of Kd. Item: anti-NGF feline IgG1a, Fc variant S252Y, Q311R (antibody, part only; not given: anti-NGF variable domains, not shown: another chain or arm of the molecule; small tags and cut ends) Fc: PPEMLGGPSIFIFPPKPKDTLYISRTPEVTCLVVDLGPDDSDVQITWFVDNTQVYTAKTSPREEQFNSTYRVVSVLPILHRDWLKGKEFKCKVNSKSLPSPIERTISKAKGQPHEPQVYVLPPAQEELSRNKVSVTCLIKSFHPPDIAVEWEITGQPEPENNYRTTPPQLDSDGTYFVYSKLSVDRSHWQRGNTYTCSVSHEALHSHHTQKSLTQSPGK
*A* 0.84

*Q* I have this binder here, anti-NGF feline IgG1a, Fc variant S252Y, Q311V (antibody, part only; not given: anti-NGF variable domains, light chain, not shown: another chain or arm of the molecule; small tags and cut ends) Fc: PPEMLGGPSIFIFPPKPKDTLYISRTPEVTCLVVDLGPDDSDVQITWFVDNTQVYTAKTSPREEQFNSTYRVVSVLPILHVDWLKGKEFKCKVNSKSLPSPIERTISKAKGQPHEPQVYVLPPAQEELSRNKVSVTCLIKSFHPPDIAVEWEITGQPEPENNYRTTPPQLDSDGTYFVYSKLSVDRSHWQRGNTYTCSVSHEALHSHHTQKSLTQSPGK , and I need its recorded log10 of Kd.
*A* 0.58
